pKd data for Nurr1 (nuclear receptor related 1 protein) (Homo sapiens, UniProt P43354) follow.
Answers are plain numbers, as −log10 of the molar value.

Molecule: CCCCCCCC/C=C\CCCCCCCC(=O)O [OA, oleic acid]
Study system: Nurr1 (nuclear receptor related 1 protein) (Homo sapiens, UniProt P43354)
Sequence (P43354 352-598): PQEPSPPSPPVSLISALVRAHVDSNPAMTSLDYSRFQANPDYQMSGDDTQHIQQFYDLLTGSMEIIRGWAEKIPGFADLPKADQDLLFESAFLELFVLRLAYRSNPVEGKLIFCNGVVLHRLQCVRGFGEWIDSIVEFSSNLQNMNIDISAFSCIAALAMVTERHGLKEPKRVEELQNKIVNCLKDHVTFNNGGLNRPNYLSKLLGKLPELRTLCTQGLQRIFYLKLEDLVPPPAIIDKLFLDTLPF
Endpoint result: 4.23

Now, please, on to the next molecule.
Requested field: pKd. Item: CCCCC/C=C\C/C=C\CCCCCCCC(=O)O [LA, linoleic acid] 4.00

These measurements were taken from paper PMC6318021.
